These measurements were taken from patent US20140079632A1.

Biological target: plasmin (from human plasma) (Homo sapiens, UniProt P00747)
Sequence (P00747 581-810 limits assumed): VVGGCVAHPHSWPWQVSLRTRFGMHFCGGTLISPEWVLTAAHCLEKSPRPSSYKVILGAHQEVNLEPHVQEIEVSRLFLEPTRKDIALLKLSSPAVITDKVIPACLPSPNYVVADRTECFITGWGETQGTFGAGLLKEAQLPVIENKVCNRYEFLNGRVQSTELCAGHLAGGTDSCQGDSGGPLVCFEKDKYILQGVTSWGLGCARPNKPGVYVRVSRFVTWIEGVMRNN
Sequence (P00747 97-580 partner limits assumed): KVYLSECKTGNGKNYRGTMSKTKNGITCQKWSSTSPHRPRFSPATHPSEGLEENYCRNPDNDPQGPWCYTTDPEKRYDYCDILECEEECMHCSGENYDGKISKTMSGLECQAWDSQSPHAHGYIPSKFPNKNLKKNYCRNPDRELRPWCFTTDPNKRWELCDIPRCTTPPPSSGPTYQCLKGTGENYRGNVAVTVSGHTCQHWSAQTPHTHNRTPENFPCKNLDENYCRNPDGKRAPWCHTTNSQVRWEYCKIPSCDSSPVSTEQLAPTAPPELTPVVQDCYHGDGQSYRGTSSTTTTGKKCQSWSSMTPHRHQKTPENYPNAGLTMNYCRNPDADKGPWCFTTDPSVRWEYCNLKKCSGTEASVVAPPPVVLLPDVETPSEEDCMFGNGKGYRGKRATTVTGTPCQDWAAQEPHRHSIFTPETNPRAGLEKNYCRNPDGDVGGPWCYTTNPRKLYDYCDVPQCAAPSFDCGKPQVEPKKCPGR
Test: Selectivity: plasmin inhibition, substrate Biophen CS-21(66)
Details: 15 min preincubation; Tris buffer pH 7.4; 580 μM substrate
pIC50: −log10 of the molar value.
measuredEndpoint: pIC50

compound	measuredEndpoint	resultValue
C#CCOCCOCCOCCOC(=O)NC(Cc1ccc(NC(=N)N)cc1)P(=O)(Oc1ccccc1)Oc1ccccc1.O=C(O)C(F)(F)F (stereo not drawn) [Intermediate 57, 2,2,2-trifluoroacetate]	pIC50	5.05
CCN(CC)c1ccc2c(-c3ccccc3C(=O)N3CCN(C(=O)CCCCCCCn4cc(COCCOC(=O)NC(Cc5ccc(NC(=N)N)cc5)P(=O)(Oc5ccccc5)Oc5ccccc5)nn4)CC3)c3ccc(=[N+](CC)CC)cc-3oc2c1.O=C(O)C(F)(F)F.[Cl-] (stereo not drawn)	pIC50	5.27
CCN(CC)c1ccc2c(-c3ccccc3C(=O)N3CCN(C(=O)CCCCCCCn4cc(COCCOCCOCCOC(=O)NC(Cc5ccc(NC(=N)N)cc5)P(=O)(Oc5ccccc5)Oc5ccccc5)nn4)CC3)c3ccc(=[N+](CC)CC)cc-3oc2c1 (stereo not drawn)	pIC50	4.96
